tested on: human renal renin (Homo sapiens)
Sequence (P00797 67-406): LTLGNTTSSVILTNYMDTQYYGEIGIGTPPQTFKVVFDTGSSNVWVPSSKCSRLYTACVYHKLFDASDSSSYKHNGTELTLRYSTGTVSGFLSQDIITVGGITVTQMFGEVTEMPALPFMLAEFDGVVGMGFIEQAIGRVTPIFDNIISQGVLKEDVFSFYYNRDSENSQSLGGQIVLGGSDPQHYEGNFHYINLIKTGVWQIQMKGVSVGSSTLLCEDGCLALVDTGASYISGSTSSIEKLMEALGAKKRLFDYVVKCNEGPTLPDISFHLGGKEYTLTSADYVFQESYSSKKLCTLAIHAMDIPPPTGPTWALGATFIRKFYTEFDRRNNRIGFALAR
reported endpoint: IC50 (nM)

{"columns": ["compound", "reported endpoint", "unit string", "test result"],
 "data": [
  ["CC[C@H]1CO[C@@H]1[C@H](O)[C@H](CC1CCCCC1)NC(=O)C(Cc1cscn1)NC(=O)[C@@H](CC(=O)N1CCN(C)CC1)Cc1ccccc1 (stereo partly drawn) [Example 70]", "IC50", "nM", 0.2],
  ["CC(C)(C)OC(=O)NC(Cc1ccccc1)C(=O)NC(Cc1cnc[nH]1)C(=O)N[C@@H](CC1CCCCC1)[C@@H](O)[C@@H]1CCO1 (stereo partly drawn) [Example 45]", "IC50", "nM", 1.2],
  ["CC[C@H]1CO[C@@H]1[C@H](O)[C@H](CC1CCCCC1)NC(=O)C(C)NC(=O)[C@H](Cc1ccccc1)CS(=O)(=O)N1CCN(C)CC1 (stereo partly drawn) [Example 191]", "IC50", "nM", 0.58],
  ["CC[C@H]1CO[C@@H]1[C@H](O)[C@H](CC1CCCCC1)NC(=O)[C@H](Cc1cscn1)NC(=O)[C@@H](CC(=O)N(C)CCc1ccccn1)Cc1ccccc1 [Example 71]", "IC50", "nM", 0.27],
  ["CC[C@H]1CO[C@@H]1[C@H](O)[C@H](CC1CCCCC1)NC(=O)[C@H](Cc1cscn1)NC(=O)[C@@H](CC(=O)N1CCOCC1)Cc1ccccc1 [Example 69]", "IC50", "nM", 0.25],
  ["CC[C@H]1CO[C@@H]1[C@H](O)[C@H](CC1CCCCC1)NC(=O)[C@H](CC(C)C)NC(=O)[C@@H](CC(=O)N1CCN(C)CC1)Cc1ccccc1 [Example 163]", "IC50", "nM", 0.51],
  ["CCOC(=O)NC(Cc1ccccc1)C(=O)NC(CC(C)C)C(=O)N[C@@H](CC1CCCCC1)[C@@H](O)[C@H]1OC[C@@H]1CC (stereo partly drawn) [Example 164]", "IC50", "nM", 0.46],
  ["CCCC[C@H](NC(=O)[C@@H](CC(=O)N1CCN(C)CC1)Cc1ccccc1)C(=O)N[C@@H](CC1CCCCC1)[C@@H](O)[C@H]1OC[C@@H]1CC [Example 155]", "IC50", "nM", 0.37],
  ["CCCC[C@H](O[C@@H](Cc1ccccc1)C(=O)N1CCC(OCOC)CC1)C(=O)N[C@@H](CC1CCCCC1)[C@@H](O)[C@H]1OC[C@@H]1C(C)C [Example 72]", "IC50", "nM", 0.8],
  ["CC[C@H]1CO[C@@H]1[C@H](O)[C@H](CC(C)C)NC(=O)C(Cc1cnc[nH]1)NC(=O)C(Cc1ccccc1)NC(=O)OC(C)(C)C (stereo partly drawn) [Example 171]", "IC50", "nM", 0.5],
  ["CC[C@H]1CO[C@@H]1[C@H](O)[C@H](CC(C)C)NC(=O)C(Cc1cscn1)NC(=O)[C@H](Cc1ccccc1)CS(=O)(=O)N1CCN(C)CC1 (stereo partly drawn) [Example 178]", "IC50", "nM", 0.38],
  ["CCCC[C@H](NC(=O)C(Cc1ccccc1)Cn1ccnc1)C(=O)N[C@@H](CC1CCCCC1)[C@@H](O)[C@H]1OC[C@@H]1CC (mixture of isomers) [Example 154]", "IC50", "nM", 0.7]
]}

Cited source: patent US5258362A
